molecular target: Human factor D (Homo sapiens (Human))
Sequence (P00746 26-253 limits assumed): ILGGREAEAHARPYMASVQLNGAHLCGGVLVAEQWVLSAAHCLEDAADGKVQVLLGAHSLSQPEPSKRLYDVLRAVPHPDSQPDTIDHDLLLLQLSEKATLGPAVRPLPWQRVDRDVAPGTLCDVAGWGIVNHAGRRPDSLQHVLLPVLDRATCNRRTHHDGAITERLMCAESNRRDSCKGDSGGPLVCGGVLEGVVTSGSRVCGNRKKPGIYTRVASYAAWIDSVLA
OBSERVATION TYPE: IC50

Field: example entries. Status: answers known.
INSERT INTO measurements (molecule, measured) VALUES
  ('CCOP(=O)(O)c1ccc2c(c1)c(C(C)=O)cn2CC(=O)N1C[C@H](F)C[C@H]1C(=O)NCc1cccc(Cl)c1F [Compound 9]', '> 10000 nM'),
  ('CCOP(=O)(c1ccccc1)c1ccc2c(C(C)=O)cn(CC(=O)N3C[C@H](F)C[C@H]3C(=O)NCc3cccc(Cl)c3F)c2c1 (stereo partly shown) [Compound 23]', '< 1000 nM'),
  ('COC(=O)c1cn(CC(=O)N2C[C@H](F)C[C@H]2C(=O)NCc2cccc(Cl)c2F)c2cc(P(=O)(O)O)ccc12 [Compound 14]', '< 1000 nM'),
  ('CCOC(=O)c1nn(CC(=O)N2C[C@H](F)C[C@H]2C(=O)NCc2cccc(Cl)c2F)c2cc(P(=O)(OCC)OCC)ccc12 [Compound 11]', '> 10000 nM'),
  ('CCOP(=O)(OCC)c1ccc2c(C(C)=O)cn(CC(=O)N3C[C@H](F)C[C@H]3C(=O)NCc3cccc(Cl)c3F)c2c1 [Compound 1]', '< 1000 nM'),
  ('CCCCOP(=O)(OCCCC)c1ccc2c(C(C)=O)cn(CC(=O)N3C[C@H](F)C[C@H]3C(=O)NCc3cccc(Cl)c3F)c2c1 [Compound 20]', '< 1000 nM'),
  ('NC(=O)c1nn(CC(=O)N2C[C@H](F)C[C@H]2C(=O)NCc2cccc(Cl)c2F)c2cc(P(=O)(O)O)ccc12 [Compound 18]', '< 1000 nM'),
  ('CC(=O)c1cn(CC(=O)N2C[C@H](F)C[C@H]2C(=O)NCc2cccc(Cl)c2F)c2cc(P(=O)(O)OCOC(=O)OC(C)C)ccc12 [Compound 22]', '< 1000 nM');

Continue with the molecule presented below.
Problem: Short answer please: IC50, Human factor D (Homo sapiens (Human)), entry CC(=O)c1cn(CC(=O)N2C[C@H](F)C[C@H]2C(=O)NCc2cccc(Cl)c2F)c2cc(P(=O)(O)OCOC(=O)C(C)(C)C)ccc12 [Compound 28]
Result: < 1000 nM
